Here, each record is paired with measured protein stability index data.
B1: TRIM63 (parent)
chain: QRITQEQEKKLSFIEALIQQYQEQ

Variants of: B1
ASSAY_TEXT: protein stability index of a GFP-peptide fusion (GPS, HEK-293T) (PSI 1-6); higher = more stable;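 also: lentivirally expressed fusions sorted by FACS into six bins by GFP to DsRed ratio, PSI derived from sequencing read proportions per bin multiplied by bin number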
MEASUREMENT_SETUP: c terminus: a fixed tail appended
Kindly provide the number alone.

Sample answers from the record:
- ENTRY_SEQUENCE: "QRITQEQEKQLSFIEALIQQYQEQ [K10Q]"
  protein stability index: 1.95
- ENTRY_SEQUENCE: "QRITQEREKKLSFIEALIQQYQEQ [Q7R]"
  protein stability index: 2.29
- ENTRY_SEQUENCE: "QRITQEQIKKLSFIEALIQQYQEQ [E8I]"
  protein stability index: 1.9

# input Quick check: protein stability index of QRKTQEQEKKLSFIEALIQQYQEQ [I3K] ?
# output 2.37

# input Quick check: protein stability index of QRITQEQEKKLSLIEALIQQYQEQ [F13L] ?
# output 2.72

# input Quick check: protein stability index of QRITQEQEKKLSFIEALLQQYQEQ [I18L] ?
# output 2.3

# input Quick check: protein stability index of QRITQEQEKKLSFHEALIQQYQEQ [I14H] ?
# output 3.2

# input Quick check: protein stability index of QRITQEQEKKLSFIEKLIQQYQEQ [A16K] ?
# output 2.25

# input Quick check: protein stability index of QRITQENEKKLSFIEALIQQYQEQ [Q7N] ?
# output 3.1

# input Quick check: protein stability index of QRITQEQEKKLSFIEALEQQYQEQ [I18E] ?
# output 2.2

# input Quick check: protein stability index of QRITQEQEKKLSFIEALIQNYQEQ [Q20N] ?
# output 2.93

# input Quick check: protein stability index of QRITQEQEKKLSFIEALIQQYQNQ [E23N] ?
# output 1.9
